# target_of_assay: 15-PGDH/HPGD (Homo sapiens, UniProt P15428)
# Construct: purchased R&D System 5660-DH
# Sequence (P15428 whole entry): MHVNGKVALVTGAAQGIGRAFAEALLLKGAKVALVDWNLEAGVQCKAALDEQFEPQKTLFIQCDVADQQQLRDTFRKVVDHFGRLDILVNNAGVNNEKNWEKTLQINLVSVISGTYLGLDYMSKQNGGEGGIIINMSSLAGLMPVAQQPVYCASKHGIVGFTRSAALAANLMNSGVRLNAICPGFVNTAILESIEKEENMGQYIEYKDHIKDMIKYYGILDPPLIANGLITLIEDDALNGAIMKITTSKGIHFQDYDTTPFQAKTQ
# experiment_notes: hPGDH inhibitor screening biochemical assay
# test_conditions: 10 nM enzyme, fluorescence ex/em 340/485 nm
pIC50: −log10 of the molar value.
outcome_measure: pIC50

Solved entries:
compound: [O-][S+](CCC1CC1)c1cnc2c(ccn2-c2cccc(-c3nnc[nH]3)c2)c1 (single isomer, unassigned) [Compound 51A]
pIC50: > 7.00
//
compound: [O-][S+](c1cnc2c(cnn2-c2cccc(-c3ccnc(N4CCOCC4)c3)c2)c1)C1CCC1 (stereo not drawn) [Compound 91A]
pIC50: > 7.00
//
compound: [O-][S+](c1cnc2c(cnn2-c2cccc(-c3nnc[nH]3)c2)c1)C1CCC(F)(F)C1 (single isomer, unassigned) [Compound 8A]
pIC50: ≤ 6.00
//
compound: CC(=O)Nc1ccc(-c2cncc(-n3ncc4cc([S+]([O-])C5CCCC5)cnc43)c2)cc1 (single isomer, unassigned) [Compound 12B]
pIC50: > 7.00
//
compound: Cc1nnc(-c2cccc(-n3ncc4cc([S+]([O-])C5CCC5)cnc43)c2)[nH]1 (stereo not drawn) [Compound 92B]
pIC50: > 7.00

Now look at this entry.
Input line: Tell us which pIC50 value is on record for [O-][S+](c1cnc2c(cnn2-c2cccc(-c3nnc[nH]3)c2)c1)C1C[C@@H]2C[C@@H]2C1 (single isomer, unassigned) [Compound 123C]
Output line: > 7.00

Source listed as patent US20260226066A1.
